Each entry below carries its reported CC50 at 72 h.
EXPERIMENT SUMMARY: Cytotoxicity against human HEK293 cells assessed as reduction in cell proliferation incubated for 72 hrs by MTT assay
Format: toxicity, cell-based
Give your result in µM as a bare value.

MOLECULE: Cc1ccc(O)cc1NC(=O)c1cnc(Nc2nc(SCCN3CCOCC3)nc3c2cnn3C)s1
SCALE UNIT: µM
CC50 at 72 h: 5.23

Reported CC50 at 72 h, molecule Cc1nc(Nc2ncc(C(=O)Nc3c(C)cccc3Cl)s2)cc(N2CCN(CCO)CC2)n1 [DASATINIB ANHYDROUS] : ____
0.78

====

EXPERIMENT SUMMARY: Cytotoxicity against human HaCaT cells assessed as reduction in cell proliferation incubated for 72 hrs by MTT assay
Type: toxicity, cell-based
Each entry below carries its reported CC50 at 72 h.
Give your result in µM as a bare value.

COMPOUND: Cc1nc(Nc2ncc(C(=O)Nc3c(C)cccc3Cl)s2)cc(N2CCN(CCO)CC2)n1 [DASATINIB ANHYDROUS]
RECORDED RESULT: 0.22

Reported CC50 at 72 h, compound Cc1ccc(O)cc1NC(=O)c1cnc(Nc2nc(SCCN3CCOCC3)nc3c2cnn3C)s1 : ____
3.27

====

EXPERIMENT SUMMARY: Cytotoxicity against human HEK293 cells assessed as reduction in cell proliferation incubated for 48 hrs by MTT assay
Assay type: toxicity, cell-based
METRIC: CC50 at 48 h (µM)
Give your result in µM as a bare value.

COMPOUND: Cc1nc(Nc2ncc(C(=O)Nc3c(C)cccc3Cl)s2)cc(N2CCN(CCO)CC2)n1 [DASATINIB ANHYDROUS]
RECORDED RESULT: 0.89

Reported CC50 at 48 h, compound Cc1ccc(O)cc1NC(=O)c1cnc(Nc2nc(SCCN3CCOCC3)nc3c2cnn3C)s1 : ____
6.9

====

Each entry below carries its reported CC50 at 24 h.
EXPERIMENT SUMMARY: Cytotoxicity against human HaCaT cells assessed as reduction in cell proliferation incubated for 24 hrs by MTT assay
Type: toxicity, cell-based
Give your result in µM as a bare value.

COMPOUND: Cc1nc(Nc2ncc(C(=O)Nc3c(C)cccc3Cl)s2)cc(N2CCN(CCO)CC2)n1 [DASATINIB ANHYDROUS]
METRIC: CC50 at 24 h
RECORDED RESULT: 20.4

Reported CC50 at 24 h, compound Cc1ccc(O)cc1NC(=O)c1cnc(Nc2nc(SCCN3CCOCC3)nc3c2cnn3C)s1 : ____
92.8

====

EXPERIMENT SUMMARY: Metabolic stability in human liver microsome measured after 1 hr in presence of NADPH by UV/LC-MS analysis
Assay type: ADME
CONDITIONS: liver microsomes, read-out: Stability
METRIC: remaining at 1 h (%)
Give your result in % as a bare value.

MOLECULE: Cn1ncc2c(Nc3ncc(C(=O)Nc4ccccc4)s3)nc(SCCN3CCOCC3)nc21
SCALE UNIT: %
remaining at 1 h: 99.8

Reported remaining at 1 h, molecule Cn1ncc2c(Nc3ncc(C(=O)Nc4cccc(O)c4)s3)nc(SCCN3CCOCC3)nc21 : ____
99.4

Reported remaining at 1 h, molecule O=C(Nc1ccccc1)c1cnc(Nc2ncnc3c2cnn3CC(Cl)c2ccccc2)s1 (configuration not stated) : ____
99
